Values were extracted from patent US20250195521A1.

- Tested on: KRAS G13C (Homo sapiens (Human), UniProt P01116+P62937, G13C)
- Sequence (P01116 other isoform, or with tags, fused parts or gaps G13C): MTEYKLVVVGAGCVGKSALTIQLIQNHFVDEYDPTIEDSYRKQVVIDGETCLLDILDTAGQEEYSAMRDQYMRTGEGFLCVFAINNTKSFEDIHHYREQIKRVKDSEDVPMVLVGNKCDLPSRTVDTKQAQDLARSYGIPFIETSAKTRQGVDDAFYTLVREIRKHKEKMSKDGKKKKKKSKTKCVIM
- Sequence (P62937 whole entry): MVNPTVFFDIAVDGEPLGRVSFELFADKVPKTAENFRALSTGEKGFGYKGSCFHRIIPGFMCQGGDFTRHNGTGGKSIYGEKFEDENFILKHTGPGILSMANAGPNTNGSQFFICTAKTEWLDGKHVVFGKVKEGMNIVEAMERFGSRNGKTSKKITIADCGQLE
- Procedure text: Ras-Raf disruption/FRET/MOA assay (BRAF RBD, Cyclophilin A)
- Assay type: biochemical
- Condition context: read-out: KRAS G13C FRET IC50
Measured IC50 by item

Compound | IC50
CCn1c(-c2cccnc2[C@H](C)OC)c2c3cc(ccc31)-c1csc(n1)C[C@H](NC(=O)[C@H](C(C)C)N(C)C(=O)N1CC(OC)C1)C(=O)N1CCC[C@H](N1)C(=O)OCC(C)(C)C2 [Compound A354] | 100 to 1000 nM
CCn1c(-c2cccnc2[C@H](C)OC)c2c3cc(ccc31)-c1csc(n1)C[C@H](NC(=O)[C@H](C(C)C)N(C)C(=O)N1CCO[C@H](c3ccccc3)C1)C(=O)N1CCC[C@H](N1)C(=O)OCC(C)(C)C2 | 100 to 1000 nM
CCn1c(-c2cccnc2[C@H](C)OC)c2c3cc(ccc31)-c1csc(n1)C[C@H](NC(=O)[C@H](C(C)C)N(C)C(=O)N1C3COCC1C3)C(=O)N1CCC[C@H](N1)C(=O)OCC(C)(C)C2 | 100 to 1000 nM
CCn1c(-c2cccnc2[C@H](C)OC)c2c3cc(ccc31)-c1csc(n1)C[C@H](NC(=O)[C@H](C(C)C)N(C)C(=O)N1CC3(CCCN(C)C3=O)C1)C(=O)N1CCC[C@H](N1)C(=O)OCC(C)(C)C2 | 1000 to 10000 nM
CCn1c(-c2cccnc2[C@H](C)OC)c2c3cc(ccc31)-c1cc(O)cc(c1)C[C@H](NC(=O)[C@H](C(C)C)N(C)C(=O)OCc1ccccc1)C(=O)N1CCC[C@H](N1)C(=O)OCC(C)(C)C2 | 100 to 1000 nM

Proceeding to the next compound to report its IC50.
Lookup result for `CCn1c(-c2cccnc2[C@H](C)OC)c2c3cc(ccc31)-c1csc(n1)C[C@H](NC(=O)N1CC[C@@H]1COC)C(=O)N1CCC[C@H](N1)C(=O)OCC(C)(C)C2` ; measured IC50: 100 to 1000 nM

###

- Tested on: KRAS G12V (Homo sapiens (Human), UniProt P01116+P62937, G12V)
- Sequence (P01116 other isoform, or with tags, fused parts or gaps G12V): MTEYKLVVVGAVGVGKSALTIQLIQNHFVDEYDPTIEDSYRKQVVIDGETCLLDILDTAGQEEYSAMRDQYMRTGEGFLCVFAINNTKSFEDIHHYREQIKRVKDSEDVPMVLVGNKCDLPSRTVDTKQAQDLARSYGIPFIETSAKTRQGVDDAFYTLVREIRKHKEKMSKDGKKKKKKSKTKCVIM
- Sequence (P62937 whole entry): as the sequence (P62937 whole entry) above
- Procedure text: Ras-Raf disruption/FRET/MOA assay (BRAF RBD, Cyclophilin A)
- Format: biochemical
- Condition context: read-out: KRAS G12V FRET IC50
pIC50: −log10 of the molar value.
Overview of recorded pIC50 for various compounds

Take a look at these entries with their results.
Compound | Reported endpoint | Reported result
CCn1c(-c2cccnc2[C@H](C)OC)c2c3cc(ccc31)-c1cccc(c1)C[C@H](NC(=O)[C@H](C(C)C)N(C)C(=O)N1CC(OC)C1)C(=O)N1CCC[C@H](N1)C(=O)OCC(C)(C)C2 | pIC50 | 6.00 to 7.00
CCn1c(-c2cccnc2[C@H](C)OC)c2c3cc(ccc31)-c1cc(O)cc(c1)C[C@H](NC(=O)[C@H](C(C)C)N(C)C(=O)C1CC13CNC3)C(=O)N1CCC[C@H](N1)C(=O)OCC(C)(C)C2 (stereo partly shown) | pIC50 | 7.00 to 8.00
CCn1c(-c2cccnc2[C@H](C)OC)c2c3cc(ccc31)-c1cc(O)cc(c1)C[C@H](NC(=O)[C@H](C(C)C)N(C)C(=O)[C@H]1CN[C@@H]3CCO[C@H]13)C(=O)N1CCC[C@H](N1)C(=O)OCC(C)(C)C2 | pIC50 | 6.00 to 7.00

Please fill in: pIC50 reported for `CCn1c(-c2cccnc2[C@H](C)OC)c2c3cc(ccc31)-c1csc(n1)C[C@H](NC(=O)[C@H](C(C)C)N(C)C(=O)N1C[C@@H]3[C@@H](C1)OCCN3C)C(=O)N1CCC[C@H](N1)C(=O)OCC(C)(C)C2` = 6.00 to 7.00
